Reference source for all entries: the supplement of paper PMC7125110

B1: glmS ribozyme (parent)
chain: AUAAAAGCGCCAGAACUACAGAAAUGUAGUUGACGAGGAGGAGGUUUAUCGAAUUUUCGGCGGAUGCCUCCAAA

Variants of: B1
Assay: self-cleavage kobs at 2500 uM GlcN6P; higher = faster cleavage; RNA array
Conditions: with glucosamine-6-phosphate
This sample holds only a part of the variants without activity.
Classification field. Basis: self-cleavage kobs at 2500 uM GlcN6P. Definitions: low interval = under 0.0001 s⁻¹, middle interval = from 0.0001 s⁻¹ up to 0.0006 s⁻¹, high interval = 0.0006 s⁻¹ and over

mutant-name: G13U U45A U46A C58U
label-class: low interval
--
mutant-name: C58A C67U
label-class: middle interval
--
mutant-name: A15G C34A G37C
label-class: low interval
--
mutant-name: A12C A33C G40U G63U C68U
label-class: low interval
--
mutant-name: C10G A36C G60C C70U
label-class: low interval
--
mutant-name: A36U A48C C67G
label-class: low interval
--
mutant-name: U31C A52G
label-class: middle interval
--
mutant-name: A12C C67A
label-class: high interval
--
mutant-name: A15U G32U
label-class: middle interval
--
mutant-name: A6G A12C G37C U45A C70U
label-class: low interval
--
mutant-name: G29C U45A
label-class: middle interval
--
mutant-name: A6G G43U G44A A48U G63A
label-class: low interval
--
mutant-name: A48G G66C
label-class: low interval
--
mutant-name: C16U U55G C68U
label-class: high interval
--
mutant-name: G13C G43C A48U
label-class: low interval
--
mutant-name: G32A G37A
label-class: low interval
--
mutant-name: C50G G66U C67A
label-class: low interval
--
mutant-name: G35C A53G C71U
label-class: low interval
--
mutant-name: C8G C11A
label-class: low interval
--
mutant-name: G35U U69A
label-class: low interval
--
mutant-name: C8U C10U A14U G43A
label-class: low interval
--
mutant-name: G29U A39C
label-class: high interval
--
mutant-name: A15G A53C
label-class: high interval
--
mutant-name: C16G G59U G60C C68G
label-class: low interval
--
mutant-name: A6G C16A A52C
label-class: low interval
--
mutant-name: U54G C71A
label-class: high interval
--
mutant-name: C8G C10A G38U A52G
label-class: low interval
--
mutant-name: A6G A12C G43C
label-class: low interval
--
mutant-name: U45G U56C
label-class: middle interval
--
mutant-name: G41A U47G
label-class: high interval
--
mutant-name: C58G C71U
label-class: low interval
--
mutant-name: A15C C68U
label-class: high interval
--
mutant-name: C10A G41C C50G A53C
label-class: low interval
--
mutant-name: A15G C16A U30C
label-class: high interval
--
mutant-name: A6U U30C
label-class: low interval
--
mutant-name: A14G G59U
label-class: low interval
--
mutant-name: C8G G40U G41C
label-class: low interval
--
mutant-name: U47A C58A
label-class: middle interval
--
mutant-name: G9A G29A A42G A48C U65A
label-class: low interval
--
mutant-name: G37A G62C
label-class: low interval
--
mutant-name: A33U G35A U45G C50G C70A
label-class: low interval
--
mutant-name: G29C G66U
label-class: low interval
--
mutant-name: A15G A33U
label-class: low interval
--
mutant-name: U31C G35U A39C G44U U55A
label-class: low interval
--
mutant-name: A12G G40U
label-class: middle interval
